Target: T1, FcRL4, overexpressed on 3T3 cells (UniProt Q96PJ5 20-515, limits assumed)
T1 construct: whole, on cells
T1 sequence (looked up): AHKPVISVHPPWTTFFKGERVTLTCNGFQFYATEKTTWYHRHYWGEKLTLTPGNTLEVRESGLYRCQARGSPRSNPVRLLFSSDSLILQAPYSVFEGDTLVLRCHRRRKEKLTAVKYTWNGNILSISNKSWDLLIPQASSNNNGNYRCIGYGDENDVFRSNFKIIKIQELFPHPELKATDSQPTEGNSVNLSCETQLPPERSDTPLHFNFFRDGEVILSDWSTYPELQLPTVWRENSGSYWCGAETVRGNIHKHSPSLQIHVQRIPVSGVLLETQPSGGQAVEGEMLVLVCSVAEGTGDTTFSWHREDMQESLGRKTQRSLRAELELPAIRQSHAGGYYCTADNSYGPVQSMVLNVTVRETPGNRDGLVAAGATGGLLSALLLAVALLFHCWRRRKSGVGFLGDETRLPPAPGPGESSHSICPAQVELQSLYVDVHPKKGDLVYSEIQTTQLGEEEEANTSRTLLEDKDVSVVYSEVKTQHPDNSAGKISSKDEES
Experiment: phage clone on 3T3-FcRL4 cells
readout: binding result

ET200-017 (scFv, screened as phage clone; entry is VL-linker-VH-His tag-HA tag) scFv: SYVLTQPPSVSVAPGKTARITCGGNNIGSKSVHWYQQKPGQAPVLVVYDDSDRPSGIPERFSGSNSGNTATLSISRVEAGDEADYYCQVWDSSSDHTVFGTGTKVTVLGSRGGGGSGGGGSGGGGSLEMAQVQLQQWGAGLLKPSETLSLTCAVYGGSFSGYYWSWIRQPPGKGLEWIGEINHSGSTNYNPSLKSRVTISVDTSKNQFSLKLSSVTAADTAVYYCARYYPGMDMWGQGTLVTVSSTSGQAGQHHHHHHGAYPYDVPDYAS: no binding
ET200-024 (scFv, screened as phage clone; entry is VL-linker-VH-His tag-HA tag) scFv: NFMLTQPHSVSESPGKTVTISCTGSSGSIASNYVQWYQQRPGSAPTTVIYEDNQRPSGVPDRFSGSIDSSSNSASLTISGLKTEDEADYYCQSYDSSNLWVFGGGTKLTVLGSRGGGGSGGGGSGGGGSLEMAQMQLVQSGAEVKKPGSSVKVSCKASGGTFSSYAISWVRQAPGQGLEWMGGIIPIFGTANYAQKFQGRVTITADESTSTAYMELSSLRSEDTAVYYCARYNYYYYDSWGQGTLVTVSSTSGQAGQHHHHHHGAYPYDVPDYAS: no binding
ET200-005 (scFv, screened as phage clone; entry is VL-linker-VH-His tag-HA tag) scFv: QPVLTQPPSVSVVPGKTARITCGGKNIGSKSVHWYQQKPGQAPVVVIHYDSDRPSGIPERFSGSNSGNTATLTISRVEAGDEADYYCQVWDSSSDHPYVFGTGTKVTVLGSRGGGGSGGGGSGGGGSLEMAQVQLVQSGAEVKKPGASVKVSCKASGYTFTNYGISWVRQAPGQGLEWMGWISAYNGNTNYAHKLQGRVTMTTDTSTSTANMELRSLRPDDTAVYYCARSYFGSHDYWGQGTLVTVSSTSGQAGQHHHHHHGAYPYDVPDYAS: no binding
